# target_of_assay: GDP-bound KRAS wild-type protein (Homo sapiens)
# Sequence (P01116 whole entry): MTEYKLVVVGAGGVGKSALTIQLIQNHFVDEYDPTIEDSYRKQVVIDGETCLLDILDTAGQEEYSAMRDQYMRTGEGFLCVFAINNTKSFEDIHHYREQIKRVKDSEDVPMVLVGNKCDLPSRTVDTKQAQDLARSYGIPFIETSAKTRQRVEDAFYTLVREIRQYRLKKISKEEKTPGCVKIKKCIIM
# assay_comment: Binding to KRAS by surface plasmon resonance (SPR), Single Cycle Kinetics
# experimental_context: SPR Single Cycle Kinetics, GDP-bound KRAS wild-type protein, 1:1 binding model; read-out: KRAS KD
Where a SMILES comes first, the peptide text is derived from it. Bridges are numbered along the chain shown (N, C = ends). [ ]: non-standard residue; d: D form. The star is where a group is joined. hPhe(3-Cl-4-CF3) = N[C@@H](CCc1ccc(C(F)(F)F)c(Cl)c1)C(=O)O; NEtPhe(4-Me) = CCN[C@@H](Cc1ccc(C)cc1)C(=O)O; NMeGly(cPent) = CN[C@H](C(=O)O)C1CCCC1; Hyp = O=C(O)[C@@H]1C[C@@H](O)CN1; NMeD = CN[C@@H](CC(=O)O)C(=O)O; NMeL = CN[C@@H](CC(C)C)C(=O)O; Morpholide = C1CN(*)CCO1; NMeA = CN[C@@H](C)C(=O)O; Ac5c = NC1(C(=O)O)CCCC1; Aze = O=C(O)[C@@H]1CCN1; Sar = CNCC(=O)O
parameter_measured: pKd
pKd is a log-scale quantity: -log10 of the concentration expressed in molar.

{"molecule": "CCO[C@@H]1C[C@H]2C(=O)NC3(CCCC3)C(=O)N(C)[C@@H](C3CCCC3)C(=O)N(C)[C@H](C(=O)N3CCOCC3)CC(=O)N(C)[C@@H](CC(C)C)C(=O)N[C@@H]([C@@H](C)CC)C(=O)N(C)[C@@H](C)C(=O)N3CC[C@H]3C(=O)N(CC)[C@@H](Cc3ccc(C)cc3)C(=O)N(C)CC(=O)N[C@@H](CCc3ccc(C(F)(F)F)c(Cl)c3)C(=O)N2C1 [PP0014] ([NMeL]I[NMeA][Aze][NEtPhe(4-Me)][Sar][hPhe(3-Cl-4-CF3)][Hyp](Et)[Ac5c][NMeGly(cPent)][NMeD]-Morpholide; lactam N-11)", "parameter_measured": "pKd", "numeric_readout": 10.05}

Request: Quick check: pKd on GDP-bound KRAS wild-type protein (Homo sapiens), item C=CC[C@H]1C(=O)N[C@@H]([C@@H](C)CC)C(=O)N(C)CC(=O)N(C)[C@H]2CCCCN(C2=O)[C@@H](Cc2ccc(C(F)(F)F)cc2)C(=O)N(C)CC(=O)N[C@@H](CCc2cc(F)c(C(F)(F)F)c(F)c2)C(=O)N2C[C@H](OCC)C[C@H]2C(=O)NC2(CCC2)C(=O)N(C)[C@@H](C2CCCC2)C(=O)N(C)[C@H](C(=O)N2CCOCC2)CC(=O)N1C ?
Result: 10.54

Source listed as patent US20240158446A1.
